# Assay procedure: Time course tissue distribution / pharmacokinetic study in mice
# Type: in vivo, female FVB mice
# Experimental parameters: female, FVB, mouse, intestine, po, 30 mg/kg
Property: AUC(0-t)

AUC(0-t) recorded for this molecule, CS(=O)(=O)CCNCc1ccc(-c2ccc3ncnc(Nc4ccc(OCc5cccc(F)c5)c(Cl)c4)c3c2)o1 , is 79.9 µM·h
